Reference for the values: patent US4376785A

experiment: Toxicity to killifish (TLm48), Test example 1; format: in vivo, Oryzias latipes; conditions: in vivo; TLm48 divided by concentration in water at green rice leafhopper LC50; read-out: Safety coefficient to fishes (a)/(b)
PARAMETER MEASURED: selectivity ratio

As a guide, the following entries are already answered.
[
  {
    "MOLECULE": "CC1(C)C(C(=O)OC(C#N)c2ccc(F)c(Oc3ccc(Cl)cc3)c2)C1C(Br)C(Br)(Br)Br (stereo not shown)",
    "selectivity ratio": "> 83"
  },
  {
    "MOLECULE": "CC1(C)[C@H](C(=O)OC(C#N)c2ccc(F)c(Oc3ccc(Br)cc3)c2)[C@@H]1C(Br)C(Cl)(Cl)Br (relative stereo)",
    "selectivity ratio": "> 167"
  },
  {
    "MOLECULE": "CC1(C)C(C(=O)OC(C#N)c2ccc(F)c(Oc3ccc(Cl)cc3)c2)C1C(Br)C(Cl)(Cl)Br (stereo not shown)",
    "selectivity ratio": "> 100"
  }
]

**Q:** selectivity ratio for CC1(C)[C@H](C(=O)OC(C#N)c2ccc(F)c(Oc3ccc(Br)cc3)c2)[C@H]1C(Br)C(Cl)(Cl)Br (relative stereo) ?
**A:** > 250

**Q:** Quick one: selectivity ratio for CC1(C)[C@H](C(=O)OC(C#N)c2ccc(F)c(Oc3ccc(Cl)cc3)c2)[C@H]1C(Br)C(Cl)(Cl)Br (relative stereo) [compound (6)] ?
**A:** > 200

**Q:** Report selectivity ratio for CC1(C)[C@H](C(=O)OC(C#N)c2ccc(F)c(Oc3ccc(Br)cc3)c2)[C@@H]1C(Br)C(Br)(Br)Br (stereo partly shown) please.
**A:** > 154

**Q:** Need selectivity ratio, item CC1(C)C(C=C(Cl)Cl)C1C(=O)OC(C#N)c1ccc(F)c(Oc2ccccc2)c1 (stereo not shown) [(B), reference compound]
**A:** < 2

**Q:** // lookup selectivity ratio for CC1(C)C(C(=O)OC(C#N)c2cccc(Oc3ccccc3)c2)C1C(Br)C(Cl)(Cl)Br (stereo not shown) [(A), reference compound]
**A:** 50

**Q:** # lookup: selectivity ratio of CC1(C)[C@H](C(=O)OC(C#N)c2ccc(F)c(Oc3ccc(Cl)cc3)c2)[C@H]1C(Br)C(Cl)(Cl)Br (stereo partly shown) [compound (9)]
**A:** > 333

**Q:** Consider the molecule shown here: CC1(C)C(C(=O)OC(C#N)c2ccc(F)c(Oc3ccc(Br)cc3)c2)C1C(Br)C(Cl)(Cl)Br (stereo not shown) What is its recorded selectivity ratio?
**A:** > 200

====

assay: Toxicity to killifish (TLm48), Test example 1; type: in vivo, Oryzias latipes; conditions: water; killifish, medium tolerance limit, 48 hours; read-out: Toxicity to fishes TLm48 (a)
PARAMETER MEASURED: LC50 at 48 h

[
  {
    "MOLECULE": "CC1(C)[C@H](C(=O)OC(C#N)c2ccc(F)c(Oc3ccc(Br)cc3)c2)[C@H]1C(Br)C(Cl)(Cl)Br (relative stereo) [compound (1)]",
    "MEASURED VALUE": "> 2 µg/mL"
  },
  {
    "MOLECULE": "CC1(C)[C@H](C(=O)OC(C#N)c2ccc(F)c(Oc3ccc(Cl)cc3)c2)[C@H]1C(Br)C(Cl)(Cl)Br (relative stereo) [compound (6)]",
    "MEASURED VALUE": "> 1 µg/mL"
  },
  {
    "MOLECULE": "CC1(C)[C@H](C(=O)OC(C#N)c2ccc(F)c(Oc3ccc(Br)cc3)c2)[C@@H]1C(Br)C(Cl)(Cl)Br (relative stereo) [compound (2)]",
    "MEASURED VALUE": "> 2 µg/mL"
  },
  {
    "MOLECULE": "CC1(C)C(C(=O)OC(C#N)c2ccc(F)c(Oc3ccc(Cl)cc3)c2)C1C(Br)C(Br)(Br)Br (stereo not drawn) [compound (8)]",
    "MEASURED VALUE": "> 1 µg/mL"
  },
  {
    "MOLECULE": "CC1(C)[C@H](C(=O)OC(C#N)c2ccc(F)c(Oc3ccc(Cl)cc3)c2)[C@H]1C(Br)C(Cl)(Cl)Br (stereo partly drawn) [compound (9)]",
    "MEASURED VALUE": "> 1 µg/mL"
  },
  {
    "MOLECULE": "CC1(C)[C@H](C(=O)OC(C#N)c2ccc(F)c(Oc3ccc(Br)cc3)c2)[C@@H]1C(Br)C(Br)(Br)Br (stereo partly drawn) [compound (4)]",
    "MEASURED VALUE": "> 2 µg/mL"
  }
]

**Q:** I am curious: what LC50 at 48 h value has been reported for CC1(C)C(C(=O)OC(C#N)c2ccc(F)c(Oc3ccc(Cl)cc3)c2)C1C(Br)C(Cl)(Cl)Br (stereo not drawn) [compound (5)] ?
**A:** > 1 µg/mL

**Q:** Suppose we examine the molecule CC1(C)C(C=C(Cl)Cl)C1C(=O)OC(C#N)c1ccc(F)c(Oc2ccccc2)c1 (stereo not drawn) [(B), reference compound] ; what LC50 at 48 h value has been reported?
**A:** < 0.01 µg/mL

**Q:** Recorded LC50 at 48 h of CC1(C)C(C(=O)OC(C#N)c2ccc(F)c(Oc3ccc(Br)cc3)c2)C1C(Br)C(Cl)(Cl)Br (stereo not drawn) [(11)] , please.
**A:** > 2 µg/mL
